TESTED_SYSTEM: GST-NbGlk1(82-244) (Nicotiana benthamiana)
Chain: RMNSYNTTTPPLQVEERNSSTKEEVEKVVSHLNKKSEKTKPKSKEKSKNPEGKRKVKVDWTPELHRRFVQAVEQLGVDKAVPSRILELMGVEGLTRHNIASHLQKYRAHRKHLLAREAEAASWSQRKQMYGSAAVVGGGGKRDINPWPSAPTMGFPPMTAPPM
ASSAY_NOTES: protein-binding microarray; high values mean tight binding
MEASUREMENT_CONTEXT: protein: recombinant; tags: GST (pTH6838); dsDNA, one strand shown
Over roughly 16,000 sequences, “e-score” has its median near -0.044; the highest 2% begin near 0.38. The sample as a whole holds a higher share of the highest values than the screen did.
MEASUREMENT_LABEL: binding signal (E-score)

INSERT INTO measurements (sequence_text, tested_system, measurement_label, uom, value) VALUES
  ('AATCCCGC', 'GST-NbGlk1(82-244) (Nicotiana benthamiana)', 'binding signal', 'E-score', 0.335),
  ('AATCTAGT', 'GST-NbGlk1(82-244) (Nicotiana benthamiana)', 'binding signal', 'E-score', 0.421),
  ('AAATCGCG', 'GST-NbGlk1(82-244) (Nicotiana benthamiana)', 'binding signal', 'E-score', 0.425),
  ('ATCTCAAA', 'GST-NbGlk1(82-244) (Nicotiana benthamiana)', 'binding signal', 'E-score', 0.337),
  ('ATCTATAC', 'GST-NbGlk1(82-244) (Nicotiana benthamiana)', 'binding signal', 'E-score', 0.231),
  ('ATTGCGCG', 'GST-NbGlk1(82-244) (Nicotiana benthamiana)', 'binding signal', 'E-score', 0.378),
  ('AATCAAGC', 'GST-NbGlk1(82-244) (Nicotiana benthamiana)', 'binding signal', 'E-score', 0.22),
  ('AATATATA', 'GST-NbGlk1(82-244) (Nicotiana benthamiana)', 'binding signal', 'E-score', 0.27),
  ('AAATCCCT', 'GST-NbGlk1(82-244) (Nicotiana benthamiana)', 'binding signal', 'E-score', 0.354),
  ('AAATCTGT', 'GST-NbGlk1(82-244) (Nicotiana benthamiana)', 'binding signal', 'E-score', 0.446),
  ('ATATCGCG', 'GST-NbGlk1(82-244) (Nicotiana benthamiana)', 'binding signal', 'E-score', 0.415),
  ('AATCCCGT', 'GST-NbGlk1(82-244) (Nicotiana benthamiana)', 'binding signal', 'E-score', 0.366),
  ('AGATCGCT', 'GST-NbGlk1(82-244) (Nicotiana benthamiana)', 'binding signal', 'E-score', 0.346),
  ('ATATATAC', 'GST-NbGlk1(82-244) (Nicotiana benthamiana)', 'binding signal', 'E-score', 0.227),
  ('AGATTCGG', 'GST-NbGlk1(82-244) (Nicotiana benthamiana)', 'binding signal', 'E-score', 0.413),
  ('ATAGTAAT', 'GST-NbGlk1(82-244) (Nicotiana benthamiana)', 'binding signal', 'E-score', 0.315),
  ('ATCCGTGA', 'GST-NbGlk1(82-244) (Nicotiana benthamiana)', 'binding signal', 'E-score', 0.236),
  ('ATCTGTGA', 'GST-NbGlk1(82-244) (Nicotiana benthamiana)', 'binding signal', 'E-score', 0.344),
  ('AGATCGCA', 'GST-NbGlk1(82-244) (Nicotiana benthamiana)', 'binding signal', 'E-score', 0.396),
  ('AATCAAGA', 'GST-NbGlk1(82-244) (Nicotiana benthamiana)', 'binding signal', 'E-score', 0.308),
  ('ATCTACTA', 'GST-NbGlk1(82-244) (Nicotiana benthamiana)', 'binding signal', 'E-score', 0.341),
  ('AAATCCGA', 'GST-NbGlk1(82-244) (Nicotiana benthamiana)', 'binding signal', 'E-score', 0.427),
  ('ACTTAGAT', 'GST-NbGlk1(82-244) (Nicotiana benthamiana)', 'binding signal', 'E-score', 0.257),
  ('ATCTCCGG', 'GST-NbGlk1(82-244) (Nicotiana benthamiana)', 'binding signal', 'E-score', 0.318),
  ('AAATCAGA', 'GST-NbGlk1(82-244) (Nicotiana benthamiana)', 'binding signal', 'E-score', 0.315),
  ('AAATATAG', 'GST-NbGlk1(82-244) (Nicotiana benthamiana)', 'binding signal', 'E-score', 0.237),
  ('ATCGATTA', 'GST-NbGlk1(82-244) (Nicotiana benthamiana)', 'binding signal', 'E-score', 0.207),
  ('AAATCGAC', 'GST-NbGlk1(82-244) (Nicotiana benthamiana)', 'binding signal', 'E-score', 0.341);

====

TESTED_SYSTEM: GST-NbGlk1(82-244) (Nicotiana benthamiana)
Chain: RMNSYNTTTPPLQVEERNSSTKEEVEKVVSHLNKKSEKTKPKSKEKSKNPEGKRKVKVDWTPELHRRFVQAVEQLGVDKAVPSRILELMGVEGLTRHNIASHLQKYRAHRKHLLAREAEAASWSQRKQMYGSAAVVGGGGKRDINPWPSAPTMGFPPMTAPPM
ASSAY_NOTES: protein-binding microarray; high values mean tight binding
MEASUREMENT_CONTEXT: protein: recombinant; tags: GST (pTH6838); dsDNA, one strand shown
In all, about 16,000 sequences were measured (“e-score”: median about -0.044, highest 2% from about 0.38 on). Only a selection was taken, and the highest values are over-represented in it overall.
Binary classification by binding signal, with 0.3 E-score as an inclusive lower bound for fulfilled; all other cases are not fulfilled.

INSERT INTO measurements (sequence_text, discrete_label) VALUES
  ('ATAGAGAT', 'not fulfilled'),
  ('AGAGATCC', 'fulfilled'),
  ('ATATTTGC', 'fulfilled'),
  ('ACAGATAT', 'fulfilled'),
  ('AGAGAGAT', 'not fulfilled'),
  ('AGATTTAG', 'not fulfilled'),
  ('ACAGATAC', 'not fulfilled'),
  ('AGAGATAC', 'not fulfilled'),
  ('ATAGATAC', 'not fulfilled');

====

TESTED_SYSTEM: GST-NbGlk1(82-244) (Nicotiana benthamiana)
Chain: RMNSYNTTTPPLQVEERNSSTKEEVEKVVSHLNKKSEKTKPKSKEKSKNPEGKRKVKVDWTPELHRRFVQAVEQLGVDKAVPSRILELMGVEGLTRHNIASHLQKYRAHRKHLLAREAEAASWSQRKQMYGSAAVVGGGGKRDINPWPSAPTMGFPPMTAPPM
ASSAY_NOTES: protein-binding microarray; NbGlk1 is a Golden2-like transcription factor of Nicotiana benthamiana; high values mean tight binding
MEASUREMENT_CONTEXT: protein: recombinant; tags: GST (pTH6838); dsDNA, one strand shown
Over roughly 16,000 sequences, “e-score” has its median near -0.044; the highest 2% begin near 0.38. Shown is part of a subset that was picked to be rich in the highest values.
Below, each entry is listed alongside its reported binding signal.
MEASUREMENT_LABEL: binding signal (E-score)

INSERT INTO results (sequence_text, measurement_label, value) VALUES
  ('ATCCGCTG', 'binding signal', 0.261),
  ('AATCACGC', 'binding signal', 0.256),
  ('AGAATTCG', 'binding signal', 0.221),
  ('ATCTCGAC', 'binding signal', 0.34),
  ('AGTATCCG', 'binding signal', 0.328),
  ('ATCCTATA', 'binding signal', 0.326),
  ('AAATTTGC', 'binding signal', 0.224),
  ('ATCACATA', 'binding signal', 0.212),
  ('ATACGCTA', 'binding signal', 0.239),
  ('ATTTCAAA', 'binding signal', 0.231),
  ('AAATTCCC', 'binding signal', 0.294),
  ('ATTACGAA', 'binding signal', 0.341),
  ('AGATACCG', 'binding signal', 0.364),
  ('ATCTCACG', 'binding signal', 0.2),
  ('ATTACCCC', 'binding signal', 0.247),
  ('AGATTCCG', 'binding signal', 0.463),
  ('ATTTTCCA', 'binding signal', 0.294),
  ('ATCGCGCA', 'binding signal', 0.358),
  ('ATTCGCAG', 'binding signal', 0.292),
  ('ACCGTATC', 'binding signal', 0.274),
  ('ATATTCAA', 'binding signal', 0.213),
  ('AGATACCT', 'binding signal', 0.216),
  ('CAAATCGG', 'binding signal', 0.252),
  ('ATTACATG', 'binding signal', 0.293),
  ('AGATTCCC', 'binding signal', 0.493),
  ('AGATCGGG', 'binding signal', 0.239);
